The reported measurements were obtained from patent US20260193344A1.

Measured IC50, ACTH-induced cortisol, Y1 cells, listed per entry.
# tgt: T1, human ACTH 1-39 (human, not fully specified; N-terminal biotin in the ELISA and HTRF binding assays (p-1487, p-1488); 125I on Tyr23 in Example 9 (p-1542); unlabelled in SPR. Letters unchanged.)
# T1 peptide: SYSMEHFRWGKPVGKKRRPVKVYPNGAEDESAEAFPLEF
# method notes: cell-based or functional assay

// below: answered binders
binder="Ab11 (antibody, V domains shown) VH: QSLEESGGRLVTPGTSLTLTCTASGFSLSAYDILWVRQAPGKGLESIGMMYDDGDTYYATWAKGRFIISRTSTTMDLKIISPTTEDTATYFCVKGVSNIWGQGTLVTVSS VL: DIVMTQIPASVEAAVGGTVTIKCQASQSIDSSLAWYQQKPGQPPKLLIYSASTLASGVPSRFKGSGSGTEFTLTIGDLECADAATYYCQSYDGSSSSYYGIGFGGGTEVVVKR" test_result="1.53 nM"
binder="Ab10 (antibody, V domains shown) VH: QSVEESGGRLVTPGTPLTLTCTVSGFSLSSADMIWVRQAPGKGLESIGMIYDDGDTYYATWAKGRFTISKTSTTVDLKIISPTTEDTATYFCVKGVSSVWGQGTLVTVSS VL: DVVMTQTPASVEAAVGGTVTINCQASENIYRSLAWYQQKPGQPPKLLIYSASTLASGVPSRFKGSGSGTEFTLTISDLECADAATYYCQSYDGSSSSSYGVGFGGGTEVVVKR" test_result="5.98 nM"
binder="Ab9 (antibody, V domains shown) VH: QSVEESGGRLVTPGTPLTLTCTVSGFSLNSYAMSWVRQAPGEGLEWIGIISDSGRTYYASWAKGRFTISKTSTTVDLKITSPTTEDTATYFCAREPEYGYDDYGDWVSDLWGPGTLVTVSS VL: DVVMTQTPASVEAAVGGTVTIKCQASQSISSYLSWYQQKPGQPPKLLIYRASTLASGVPSRFKGSGSGTQFTLTISDLECADAATYYCQSYYYSSSITYRNAFGGGTEVVVKR" test_result="3.47 nM"
binder="Ab5 (antibody, V domains shown) VH: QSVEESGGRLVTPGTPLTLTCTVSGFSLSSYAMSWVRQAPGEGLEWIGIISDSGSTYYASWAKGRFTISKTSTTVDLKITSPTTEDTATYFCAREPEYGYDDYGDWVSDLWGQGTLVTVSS VL: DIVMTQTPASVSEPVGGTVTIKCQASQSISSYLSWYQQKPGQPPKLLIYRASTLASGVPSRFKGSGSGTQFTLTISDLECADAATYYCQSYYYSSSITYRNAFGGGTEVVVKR" test_result="3.49 nM"
binder="Ab7 (antibody, V domains shown, Full-length rabbit/human chimeric antibody, HEK-293) VH: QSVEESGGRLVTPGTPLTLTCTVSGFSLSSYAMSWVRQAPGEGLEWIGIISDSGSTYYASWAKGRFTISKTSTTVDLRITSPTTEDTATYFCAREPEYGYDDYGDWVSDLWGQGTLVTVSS VL: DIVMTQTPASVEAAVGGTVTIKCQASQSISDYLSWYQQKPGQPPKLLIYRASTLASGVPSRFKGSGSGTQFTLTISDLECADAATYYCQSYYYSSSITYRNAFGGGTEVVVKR" test_result="2.49 nM"

Would you kindly look at the next entry?
Task item: Which value of IC50, ACTH-induced cortisol, Y1 cells has been reported for Ab3 (antibody, V domains shown) VH: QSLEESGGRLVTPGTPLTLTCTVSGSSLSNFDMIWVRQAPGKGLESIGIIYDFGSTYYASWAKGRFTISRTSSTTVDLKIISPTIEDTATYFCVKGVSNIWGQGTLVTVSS VL: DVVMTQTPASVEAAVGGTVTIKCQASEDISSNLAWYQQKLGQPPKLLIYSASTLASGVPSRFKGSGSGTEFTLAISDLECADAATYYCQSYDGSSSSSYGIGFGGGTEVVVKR in the records?
Reply: 7.72 nM
